# procedure_text: ovarian cancer cell viability with rucaparib, profiling panel, oncology-focused library, rucaparib conditional (AID 1508598)
# assay_conditions: patient-derived ovarian cancer cells, CellTiter-Glo viability, 144 h; at 5 µM; OCI-P5x cells; with rucaparib 20 µM; stronger effect = lower value; 100% = cells with rucaparib alone
# viability annotations

- compound_structure_string: "Cc1cc(O)c2c(c1)C(=O)c1cccc(O)c1C2=O"
  viability, %: 97.2
- compound_structure_string: "FC(F)c1nc2ccccc2n1-c1nc(N2CCOCC2)nc(N2CCOCC2)n1"
  viability, %: 8.53
- compound_structure_string: "COc1c(C)c2c(c(O)c1C/C=C(\\C)CCC(=O)O)C(=O)OC2"
  viability, %: 46.2
- compound_structure_string: "Clc1ccc(Nc2nnc(Cc3ccncc3)c3ccccc23)cc1"
  viability, %: 95.2
- compound_structure_string: "CN1CC[C@H](c2c(O)cc(O)c3c(=O)cc(-c4ccccc4Cl)oc23)[C@H](O)C1"
  viability, %: 14.2
- compound_structure_string: "CNC(=O)c1cc(Oc2ccc(NC(=O)Nc3ccc(Cl)c(C(F)(F)F)c3)cc2)ccn1"
  viability, %: 31.8
